- Condition parameters: Table S2: compounds exhibiting moderate to high PAMPA-BBB permeability
Readout name: PAMPA-BBB Pe

Compound	PAMPA-BBB Pe
CC1=CC(=O)C2=C(C)C[C@@H]3OC(=O)[C@@H](C)[C@H]3C=C12	74 10^-6 cm/sec
O=C(/C=C/c1ccc(O)c(O)c1)OCCc1ccccc1 [PHENETHYL CAFFEATE]	>1000 10^-6 cm/sec
COc1ccc([C@H]2COc3c(ccc(O)c3OC)C2)c(OC)c1O	127 10^-6 cm/sec
COc1c2ccoc2nc2c(OC)c(OC[C@@H](O)C(C)(C)O)ccc12	12 10^-6 cm/sec

Request: Query: PAMPA-BBB Pe; subject: COC(=O)[C@H]1[C@H]2C[C@@H]3c4[nH]c5ccccc5c4CCN3C[C@H]2C[C@@H](OC(=O)c2cc(OC)c(OC)c(OC)c2)[C@@H]1OC [Deserpidine, reference compound]
Response: 42 10^-6 cm/sec

Request: Query: PAMPA-BBB Pe; subject: COc1ccc(/C=C/C(=O)c2ccc(O)cc2O)cc1 [2',4'-DIHYDROXY-4-METHOXYCHALCONE]
Response: 357 10^-6 cm/sec

Request: Query: PAMPA-BBB Pe; subject: `CC(C)c1cc2c(c(O)c1O)[C@@]13CCCC(C)(C)[C@@H]1C[C@@H]2OC3=O`
Response: 33 10^-6 cm/sec

Request: Query: PAMPA-BBB Pe; subject: `CC=C1CN2CC[C@]34C(=C(C=O)[C@@H]1C[C@H]23)Nc1c(O)cccc14`
Response: 18 10^-6 cm/sec

Request: Query: PAMPA-BBB Pe; subject: `COc1ccc(C(=O)/C=C/c2ccccc2)cc1`
Response: >1000 10^-6 cm/sec

###

- Procedure details: in vitro
- Condition parameters: PAMPA, PAMPA-BBB Pe, Table S2: compounds exhibiting moderate to high PAMPA-BBB permeability
Classify: label 1 when Papp is strictly less than 100 ×10⁻⁶ cm/s; label 0 when Papp is not.

Known results for molecules:
Molecule	Discrete label
O=c1c2ccccc2nc2n1CCc1c-2[nH]c2ccccc12 [RUTECARPINE]	label 0
CC(C)=CCCC(C)=CC(=O)O [NEROLIC ACID]	label 1

Attention now turns to another entry.
Request: Does this molecule meet the criterion Papp < 100 ×10⁻⁶ cm/s? C[C@H]1COC2=C1C(=O)C(=O)c1c2ccc2c1CCCC2(C)C [[…]]
Response: label 1

###

- Procedure details: in vitro
- Condition parameters: PAMPA, PAMPA-BBB Pe(10^-6 cm/sec), Table S3: compounds exhibiting low PAMPA-BBB permeability
Readout name: Papp

Answered cases to consult:
> print(dat)
               structure     test.result
1  O=C(O)Cc1ccc(O)c(O)c1  < 1 ×10⁻⁶ cm/s
2    O=C(O)/C=C/c1ccccc1  < 1 ×10⁻⁶ cm/s

Kindly review the next compound as well.
Request: Query: Papp; subject: `O=c1c(O)c(-c2ccc(O)c(O)c2)oc2cc(O)cc(O)c12`
Response: < 1 ×10⁻⁶ cm/s

###

- Condition parameters: Table S2: compounds exhibiting moderate to high PAMPA-BBB permeability
Known PAMPA-BBB Pe of a selection of compounds

> print(dat)
                                   compound       test.result
1  O=C1C=C2C=C[C@@H]3C[C@@]2(O1)[C@H]1CCCCN31   22 10^-6 cm/sec
2  CC(=O)OC(C)(C)[C@@H]1Cc2cc3ccc(=O)oc3cc2O1  128 10^-6 cm/sec
3   COc1ccc(-c2coc3c(O)c(O)c(OC)cc3c2=O)cc1   40 10^-6 cm/sec
4  COc1ccc(/C=C/C(=O)c2ccc(O)cc2O)cc1OC [2',4'-DIHYDROXY-3,4-DIMETHOXYCHALCONE]  312 10^-6 cm/sec
5  COc1cc2c(cc1OC)C(C(=O)c1ccc(OC)c(OC)c1O)=NCC2   19 10^-6 cm/sec
6    COc1ccc(/C=C\c2cc(OC)c(OC)c(OC)c2)cc1O  316 10^-6 cm/sec

Request: Query: PAMPA-BBB Pe; subject: `COC(=O)c1c(OC)cc2c(c1C)Oc1c(Cl)c(O)c(Cl)c(C)c1C(=O)O2`
Response: 27 10^-6 cm/sec
